Data origin: BindingDB's records for doi:10.1021/cc100076k

Target protein (sequence): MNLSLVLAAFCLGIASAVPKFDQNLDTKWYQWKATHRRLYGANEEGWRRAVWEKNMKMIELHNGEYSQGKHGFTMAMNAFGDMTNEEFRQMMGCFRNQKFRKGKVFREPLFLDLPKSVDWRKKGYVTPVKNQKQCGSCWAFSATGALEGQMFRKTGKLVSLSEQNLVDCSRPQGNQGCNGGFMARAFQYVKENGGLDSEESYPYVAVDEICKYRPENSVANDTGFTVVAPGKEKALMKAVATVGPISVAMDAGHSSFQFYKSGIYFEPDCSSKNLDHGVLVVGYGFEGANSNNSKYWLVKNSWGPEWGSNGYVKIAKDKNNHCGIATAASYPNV
pIC50: −log10 of the molar value.
Listing of recorded pIC50 by entry.
assayEndpoint: pIC50

1) O=c1cc(-c2ccc(-c3ccccc3)cc2)oc2ccc(F)cc12 [Flavonid, 6[3,6]]    5.54
2) COc1ccc(-c2cc(=O)c3cc(OC)ccc3o2)cc1    4.92
3) COc1ccc(-c2cc(=O)c3cc(F)ccc3o2)cc1 [Flavonid, 6[3,1]]    6.10
4) COc1ccc(-c2cc(=O)c3cc(F)ccc3o2)c(OC)c1 [Flavonid, 6[3,2]]    5.80
5) COc1ccc2oc(-c3ccc(-c4ccccc4)cc3)cc(=O)c2c1 [Flavonid, 6[4,6]]    4.72

----------
Sequence of the target: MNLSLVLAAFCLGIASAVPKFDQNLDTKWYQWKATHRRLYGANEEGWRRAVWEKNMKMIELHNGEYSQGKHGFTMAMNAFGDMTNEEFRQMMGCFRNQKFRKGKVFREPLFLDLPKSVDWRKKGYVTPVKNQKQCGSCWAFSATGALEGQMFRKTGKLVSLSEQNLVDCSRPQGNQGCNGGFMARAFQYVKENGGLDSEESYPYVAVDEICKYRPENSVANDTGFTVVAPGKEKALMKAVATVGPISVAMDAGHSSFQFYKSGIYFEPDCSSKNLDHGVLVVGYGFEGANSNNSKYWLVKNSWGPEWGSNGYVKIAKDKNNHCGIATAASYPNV
// IC50 lookup, one value per entry
assayEndpoint: IC50

1) COc1cccc(Cl)c1/C=C/C(=O)c1ccc(F)cc1O [Flavonid, 5b]    > 50 µM
2) COc1ccc2oc(-c3ccc(OC)c(OC)c3OC)cc(=O)c2c1 [Flavonid, 6[4,3]]    > 50 µM
3) COc1cccc(Cl)c1-c1cc(=O)c2ccc(F)cc2o1 [Flavonid, 6b]    > 50 µM
